Give log10 of EC50 for every item shown.
target: Ras-related protein Rab-2A (Canis lupus familiaris, UniProt P61105); test: wildtype Rab2 GTP-binding inhibitors, SAR follow-up, biochemical, multiplex dose response, Bodipy-FL-GTP, flow cytometry (AID 2033); conditions: inactive by the depositor's call
Sequence (P61105 whole entry): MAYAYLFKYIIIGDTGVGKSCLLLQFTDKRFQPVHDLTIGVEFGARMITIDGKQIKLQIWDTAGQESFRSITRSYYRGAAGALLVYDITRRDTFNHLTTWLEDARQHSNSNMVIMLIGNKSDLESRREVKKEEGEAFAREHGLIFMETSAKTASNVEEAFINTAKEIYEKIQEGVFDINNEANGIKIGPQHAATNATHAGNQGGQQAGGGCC
For clarity, the numbers are log10 values of EC50 expressed in nM.

Q: // returns reported log10 of EC50 for input COc1ccc(-c2noc(CCC(=O)N3CCN(c4ccccc4OC)CC3)n2)cc1
Result: 3.12

Q: Please look up its log10 of EC50: COc1ccc(-c2noc(CCC(=O)N3CCN(c4ccccc4F)CC3)n2)cc1
Result: 2.87

Q: For COc1ccc(-c2noc(CCC(=O)N3CCN(c4ccccc4Cl)CC3)n2)cc1 , what is its reported log10 of EC50?
Result: 3.38

Q: Field request: log10 of EC50 | item: COc1ccc(-c2noc(CCC(=O)N3CCN(c4ccccc4C(F)(F)F)CC3)n2)cc1 [UNM-0000306082]
Result: 3.32

Q: For the molecule shown here, COc1ccc(-c2noc(CCC(=O)N3CCN(c4cccc(C)c4C)CC3)n2)cc1 , give the reported log10 of EC50.
Result: 3.36

Q: What value of measured log10 of EC50 is listed for COc1ccc(-c2noc(CCC(=O)N3CCN(c4cccc(OC)c4)CC3)n2)cc1 [KUC103349N] ?
Result: 3.81

Q: Recorded log10 of EC50 of COc1ccc(-c2ccc(CCC(=O)N3CCN(c4cc(C)ccc4C)CC3)[nH]2)cc1 , please.
Result: 3.72

Q: Which log10 of EC50 is reported for this molecule? COc1ccc(-c2ccc(CCC(=O)N3CCN(c4cc(C)ccc4C)CC3)s2)cc1
Result: 3.39

Q: State the recorded log10 of EC50 for this entry: COc1ccc(-c2noc(CCC(=O)N3CCC(c4cc(C)ccc4C)CC3)n2)cc1 [KUC103432N]
Result: 3.40

Q: # log10 of EC50 lookup, item Cc1ccc(C)c(N2CCN(C(=O)CCc3nc(-c4cccc(Cl)c4)no3)CC2)c1 [UNM-0000306086]
Result: 3.46

Q: Look up log10 of EC50: Cc1ccc(C)c(N2CCN(C(=O)CCc3nc(-c4ccccc4)no3)CC2)c1 [UNM-0000306070]
Result: 2.92

Q: Dear colleague, I am looking for the recorded log10 of EC50 of the following molecule: Cc1ccc(C)c(N2CCN(C(=O)CCc3nc(-c4ccc(F)cc4)no3)CC2)c1 [KUC103364N]
Result: 2.53

Q: Item Cc1ccc(C)c(N2CCN(C(=O)CCc3nc(-c4ccccc4F)no3)CC2)c1 [KUC103401N] has what recorded log10 of EC50?
Result: 2.96

Q: Query (molecule): COc1ccc(-c2cc(CCC(=O)N3CCN(c4cc(C)ccc4C)CC3)on2)cc1 ; field requested: log10 of EC50
Result: 3.40

Q: May I ask what log10 of EC50 has been recorded for COc1ccc(-c2ccc(CCC(=O)N3CCN(c4cc(C)ccc4C)CC3)o2)cc1 [KUC103447N] ?
Result: 4.18

Q: // returns reported log10 of EC50 for input COc1ccc(-c2noc(CCCC(=O)N3CCN(c4cc(C)ccc4C)CC3)n2)cc1 [KUC103353N]
Result: 4.21

Q: For Cc1ccc(C)c(N2CCN(C(=O)CCc3nc(-c4ccccc4Br)no3)CC2)c1 , what is its reported log10 of EC50?
Result: 3.50

Q: I have this molecule here, Cc1cccc(-c2noc(CCC(=O)N3CCN(c4cc(C)ccc4C)CC3)n2)c1 , and I need its recorded log10 of EC50.
Result: 3.12

Q: Data request, read-out log10 of EC50, for Cc1ccc(C)c(N2CCN(C(=O)CCc3nc(-c4ccc(Br)cc4)no3)CC2)c1 [UNM-0000306072]
Result: 3.47

Q: Can you look up the measured log10 of EC50 of Cc1ccc(C)c(N2CCN(C(=O)CCc3nc(-c4ccccc4C)no3)CC2)c1 for me?
Result: 3.22

Q: I am curious: what log10 of EC50 value has been reported for COc1ccc(-c2noc(CCC(=O)N3CCN(c4ccccc4Br)CC3)n2)cc1 [KUC103370N] ?
Result: 3.51

Q: Returns the measured log10 of EC50 for the input molecule. Input: Cc1ccc(C)c(N2CCN(C(=O)CCc3nc(-c4cccc(Br)c4)no3)CC2)c1 [KUC103367N]
Result: 3.56

Q: Bench note: what log10 of EC50 did COc1ccc(-c2noc(CCC(=O)N3CCN(c4cccc(Cl)c4)CC3)n2)cc1 show?
Result: 3.93

Q: Which measured log10 of EC50 value corresponds to COc1cccc(-c2noc(CCC(=O)N3CCN(c4cc(C)ccc4C)CC3)n2)c1 ?
Result: 3.59

Q: Fill blank: measured log10 of EC50 of the molecule COc1ccc(-c2noc(CCC(=O)N3CCN(c4ccc(C)cc4)CC3)n2)cc1 is ____.
Result: 2.85

Q: Fill in the blank: the reported log10 of EC50 of Cc1ccc(-c2noc(CCC(=O)N3CCN(c4cc(C)ccc4C)CC3)n2)cc1 is ____.
Result: 3.62

Q: Entry under review: COc1ccc(-c2noc(CCC(=O)N3CCN(c4cc(C)ccc4C)CC3)n2)cc1 . Reported log10 of EC50?
Result: 3.40

Q: # query: log10 of EC50 of entry Cc1ccc(C)c(N2CCN(C(=O)CCc3nc(-c4ccc(Cl)cc4)no3)CC2)c1 [UNM-0000306083]
Result: 3.25

Q: I would be grateful if you could share the reported log10 of EC50 for COc1ccc(-c2noc(CCC(=O)N3CCN(c4ccccc4C)CC3)n2)cc1 .
Result: 3.40

Recorded values, source BindingDB's records for doi:10.7270/Q25H7DQC.
